EXPERIMENT_DESCRIPTION: Metabolic stability in liver microsomes
CONDITION_SET: rat, liver microsomes, pH 7.4
RECORDED_METRIC: remaining at 2 h, 10 μM (%)
Give bare numbers, in %.

Data point: CCc1cc(Cl)c(OC)c(N2CCN(CC(O)CCNC(=O)c3cc4ccccc4[nH]3)CC2)c1 (stereo not shown) ; remaining at 2 h, 10 μM = 69.4

====

MEASURED_ON: CYP2C8 (Homo sapiens, UniProt P10632)
Sequence (P10632 whole entry): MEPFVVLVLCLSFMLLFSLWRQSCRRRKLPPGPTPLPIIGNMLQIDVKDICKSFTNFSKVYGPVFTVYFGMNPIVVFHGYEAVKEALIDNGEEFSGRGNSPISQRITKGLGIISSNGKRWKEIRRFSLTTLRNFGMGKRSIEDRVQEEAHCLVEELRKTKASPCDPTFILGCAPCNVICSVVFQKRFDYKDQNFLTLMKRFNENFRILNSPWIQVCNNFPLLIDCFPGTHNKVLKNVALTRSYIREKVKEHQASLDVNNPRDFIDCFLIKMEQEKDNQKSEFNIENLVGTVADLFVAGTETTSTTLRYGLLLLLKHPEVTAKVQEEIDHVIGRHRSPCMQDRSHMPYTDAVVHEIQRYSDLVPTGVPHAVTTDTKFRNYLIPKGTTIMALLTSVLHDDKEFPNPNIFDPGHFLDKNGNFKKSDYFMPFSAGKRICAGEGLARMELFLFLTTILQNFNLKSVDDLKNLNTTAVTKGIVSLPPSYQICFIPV
EXPERIMENT_DESCRIPTION: CYP inhibition in human liver microsomes
CONDITION_SET: human, human liver microsomes, probe paclitaxel
RECORDED_METRIC: activity at 20 min, 1 µM (%)
Numbers only, in %.

Entry CCc1cc(Cl)c(OC)c(N2CCN(CC(O)CCNC(=O)c3cc4ccccc4[nH]3)CC2)c1 (stereo not shown) [R-VK4-116] ; assay system CYP2C8 (Homo sapiens, UniProt P10632); activity at 20 min, 1 µM recorded at 70.5
